Items are presented alongside their recorded MIC.
- Tested on: Escherichia coli
- method_description: Antimicrobial activity against Escherichia coli GC 2883 expressing OXA10 and PSE2 beta-lactamase after 18 to 24 hrs by broth microdilution method
- Assay type: functional
Give your result in µg/mL as a bare value.

Examples with answers:
CCOC(=O)N1CCc2c(oc3cc(/C=C4/C(=O)N5C(C(=O)[O-])=CS[C@H]45)nn23)C1.[Na+] | 8
O=C([O-])C1=CS[C@@H]2/C(=C\c3cn4c5c(sc4n3)CCC5)C(=O)N12.[Na+] | 2
O=C([O-])C1=CS[C@@H]2/C(=C\c3cn4c5c(sc4n3)COCC5)C(=O)N12.[Na+] | 4
O=C([O-])C1=CS[C@@H]2/C(=C/c3cc4oc5c(n4n3)CCOC5)C(=O)N12.[Na+] | 16

# context switch: different molecule, same MIC
Req: Please look up its MIC: C[C@]1(Cn2ccnn2)[C@H](C(=O)[O-])N2C(=O)C[C@H]2S1(=O)=O.[Na+] [TAZOBACTAM SODIUM]
Resp: 1

----------
- method_description: Inhibition of Imi1 beta lactamase
measured_parameter: IC50 (µM)
Report as a plain number; the unit µM is understood.

O=C([O-])C1=CS[C@@H]2/C(=C\c3cc4oc5c(n4n3)CCOC5)C(=O)N12.[Na+] | 0.14
O=C([O-])C1=CS[C@@H]2/C(=C\c3cn4c5c(sc4n3)COCC5)C(=O)N12.[Na+] | 0.1
CCOC(=O)N1CCc2c(oc3cc(/C=C4/C(=O)N5C(C(=O)[O-])=CS[C@H]45)nn23)C1.[Na+] | 0.098

--- query ---
Req: Request the reported IC50 associated with O=C([O-])C1=CS[C@@H]2/C(=C\c3cc4oc5c(n4n3)CCCC5)C(=O)N12.[Na+]
Resp: 0.16

----------
- Test system: Enterobacter cloacae
- method_description: Antimicrobial activity against Enterobacter cloacae GC 1475 expressing P99 beta-lactamase after 18 to 24 hrs by broth microdilution method; also: test concentration or dose not given here
- Format: functional
measured_parameter: MIC
# output: numeric value plus its unit

O=C([O-])C1=CS[C@@H]2/C(=C\c3cn4c5c(sc4n3)COCC5)C(=O)N12.[Na+] | 8 µg/mL
O=C([O-])C1=CS[C@@H]2/C(=C\c3cc4oc5c(n4n3)CCOC5)C(=O)N12.[Na+] | 32 µg/mL
O=C([O-])C1=CS[C@@H]2/C(=C\c3cn4c(n3)nc3n4CCCC3)C(=O)N12.[Na+] | 2 µg/mL
O=C([O-])C1=CS[C@@H]2/C(=C\c3cn4c5c(sc4n3)CCCC5)C(=O)N12.[Na+] | 8 µg/mL
O=C([O-])C1=CS[C@@H]2/C(=C/c3cc4oc5c(n4n3)CCOC5)C(=O)N12.[Na+] | 32 µg/mL
O=C([O-])C1=CS[C@@H]2/C(=C\c3cc4oc5c(n4n3)CCCC5)C(=O)N12.[Na+] | 32 µg/mL

Consider the record given below.
Req: Quick check: MIC of O=C([O-])C1=CS[C@@H]2/C(=C\c3cn4c5c(sc4n3)CCC5)C(=O)N12.[Na+] ?
Resp: 4 µg/mL

Values from ChEMBL document CHEMBL1141585
